assay: cytotoxicity in HPDE-C7 cells, cell-based, fluorescence, HTS (AID 430); conditions: HPDE-C7 pancreatic duct cells viability, at 10 µM, active compounds read high;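 also: cells exposed to compound for 48 hours before viability readout; 0% = vehicle and 100% = reference cytotoxic drug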
About 1,100 (1.7%) of roughly 63,000 compounds were called active. The sample as a whole holds a higher share of actives than the screen did. Entries with a potency or affinity are not part of this list.
Quick reference for cytotoxicity among some molecules
The reply should be a number in %, with the unit left off.

Consider the following illustrative entries.
Prompt: Check the records and state cytotoxicity for CC(C)CCn1nnnc1C(c1ccccc1F)N1CCC(C(N)=O)CC1 (stereo not drawn)
Completion: -13.3

Prompt: Check the records and state cytotoxicity for COC(=O)C1=C(N)OC2=C(C(=O)CC(C)(C)C2)C1c1ccoc1 (stereo not drawn)
Completion: -0.4

Prompt: Check the records and state cytotoxicity for `CC1(C)CC(=O)C=C(Nc2ccccc2F)C1`
Completion: 1.2

Further cases:
Prompt: Check the records and state cytotoxicity for `O=C1Cc2ccccc2N1c1ccccc1`
Completion: -6.3

Prompt: Check the records and state cytotoxicity for `CCOC(=O)c1c(CN2CCN(CCO)CC2)n(C)c2cc(Br)c(OC)cc12`
Completion: 77

Prompt: Check the records and state cytotoxicity for COc1ccc(N2C(=O)CC(N3CCN(c4nc5ccccc5s4)CC3)C2=O)cc1 (stereo not drawn)
Completion: 7.5

Prompt: Check the records and state cytotoxicity for `COc1ccc(C)cc1NC(=O)c1nnn(Cc2cc(C)ccc2C)c1N`
Completion: 7.5
